# method_notes: Interfacial tension of medium-polar lipids against water (measure of polarity)
# Type: physicochemical
# run_conditions: taken as polarity index of the lipid (the lower the tension, the more polar)
Recorded measurements of Grenzflächenspannung gegen Wasser, one per entry
readout_name: Grenzflächenspannung gegen Wasser

compound | readout_name | measured
CCCCCCCCOC(=O)CCCCCCCCCCCCCCC(C)C [Prisorine® 2036, Octyl Isostearate] | Grenzflächenspannung gegen Wasser | 29,7 mN/m
CCCCCCCCCCC(CO)CCCCCCCC (centres unmarked) | Grenzflächenspannung gegen Wasser | 24,8 mN/m
CCCCCCCCC(CO)CCCCCC (centres unmarked) | Grenzflächenspannung gegen Wasser | 24,3 mN/m
CCCCCCCCCCCCCCCCCCOC(=O)CCCCCC [Tegosoft® SH, Stearyl Heptanoate] | Grenzflächenspannung gegen Wasser | 28,7 mN/m
CCCCCCCC(=O)OCC(COC(=O)CCCCCCC)OC(=O)CCCCCCC | Grenzflächenspannung gegen Wasser | 20,2 mN/m
CCCCCCCCCCCCCC(=O)OCC(CCCCCCCC)CCCCCCCCCC (centres unmarked) [MOD, Octyldodeceyl Myristate] | Grenzflächenspannung gegen Wasser | 22,1 mN/m
CCCCCCCCCCCCCCCCCC(=O)OC(C)C [Isopropylstearal, Isopropyl Stearate] | Grenzflächenspannung gegen Wasser | 21,9 mN/m
CCCCCCCCCCCCCCCCCC(=O)OCCCCCCCC [Cetiol® 868, Octyl Stearate] | Grenzflächenspannung gegen Wasser | 28,4 mN/m
